These entries and their values trace back to ChEMBL document CHEMBL3988442.

Listing of recorded Percent Effect by entry.
tested on: Trypanosoma cruzi; test: Trypanosoma cruzi phosphomannomutase and mannose-1-phosphate guanylyltransferase assay; type: functional; set-up: scale not given: direction of the effect not stated beside the values; settings: 10 µM
Lab book: enter the figure in %, no units written.

compound="CC1CN(C(=O)c2ccn(-c3cccc(Cl)c3)n2)CCO1 (centres undefined)" numeric_value=7.87
compound=O=C([C@@H]1CCO[C@@H]2CCN(Cc3cccnc3)C[C@H]21)N1CCCCO1 numeric_value=-1.57
compound="Fc1cnc(N2CCCC3(CN(Cc4ccncc4)CCO3)C2)nc1 (centres undefined)" numeric_value=-2.95
compound=O=C(Cn1ccnc1)N1C[C@@H]2CC[C@H](Oc3ccccc3)[C@@H]2C1 numeric_value=2.77
compound="CC(=O)N(C)c1nc(CN2CCOC(Cn3cc(C)cn3)C2)cs1 (centres undefined)" numeric_value=3.82

*Q* Field: Percent Effect (Trypanosoma cruzi). Entry: COc1cccc(CNC(=O)CN2CCCCC2Cn2cccn2)c1 (centres undefined)
*A* 4.6

*Q* Field: Percent Effect (Trypanosoma cruzi). Entry: CC(NC(=O)NCCCn1cccn1)c1cccnc1 (centres undefined)
*A* -4.77

*Q* Field: Percent Effect (Trypanosoma cruzi). Entry: COc1cccc(COCC(=O)N2CCCC(N3CCCC3)CC2)c1 (centres undefined)
*A* 2.26

*Q* Field: Percent Effect (Trypanosoma cruzi). Entry: CC1CCN(CCCNS(=O)(=O)c2cccc(F)c2)CC1
*A* -2.46

*Q* Field: Percent Effect (Trypanosoma cruzi). Entry: O=C1CC(c2cccs2)c2cnn(C3CCCC3)c2N1 (centres undefined)
*A* -6.13

*Q* Field: Percent Effect (Trypanosoma cruzi). Entry: CC(C)CC(=O)N1CCCn2cnc(CN3CCCC3=O)c2C1
*A* -3.23

###

Listing of recorded Percent Effect by entry.
target: Tyrosyl-tRNA synthetase, putative (Trypanosoma cruzi (strain CL Brener)) (UniProt Q4DSP6); assay: Trypanosoma cruzi tyrosyl tRNA synthetase (TcYRS) _High Tyrosine SOP; assay type: functional; set-up: scale not given: in the data most compounds retested in dose-response had high values; conditions: 30 µM
Sequence (Q4DSP6 as listed by the source): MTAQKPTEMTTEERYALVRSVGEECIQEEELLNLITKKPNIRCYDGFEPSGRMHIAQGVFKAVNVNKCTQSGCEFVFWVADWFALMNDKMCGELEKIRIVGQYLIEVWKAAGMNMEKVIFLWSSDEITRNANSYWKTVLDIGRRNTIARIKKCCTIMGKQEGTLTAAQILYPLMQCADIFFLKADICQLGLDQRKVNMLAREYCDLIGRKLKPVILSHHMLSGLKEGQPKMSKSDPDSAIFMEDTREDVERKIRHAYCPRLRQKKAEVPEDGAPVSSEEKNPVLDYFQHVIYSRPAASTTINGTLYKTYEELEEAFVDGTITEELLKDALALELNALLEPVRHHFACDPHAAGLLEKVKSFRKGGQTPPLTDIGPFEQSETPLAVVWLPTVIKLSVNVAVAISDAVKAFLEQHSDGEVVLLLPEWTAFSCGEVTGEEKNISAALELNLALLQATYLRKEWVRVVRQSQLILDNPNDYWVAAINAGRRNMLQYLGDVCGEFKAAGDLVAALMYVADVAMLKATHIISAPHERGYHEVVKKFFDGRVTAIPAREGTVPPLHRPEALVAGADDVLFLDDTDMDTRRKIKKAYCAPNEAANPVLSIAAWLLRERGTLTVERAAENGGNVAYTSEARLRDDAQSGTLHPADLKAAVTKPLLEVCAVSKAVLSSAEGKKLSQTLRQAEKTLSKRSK
Lab book: enter the figure in %, no units written.

compound=COc1cccc(N2CCN(Cc3ccc(NC(C)=O)cc3)CC2=O)c1 study_target="Tyrosyl-tRNA synthetase, putative (Trypanosoma cruzi (strain CL Brener)) (UniProt Q4DSP6)" quantity_name="Percent Effect" numeric_value=4.21

*Q* Return reported Percent Effect; argument: Cc1noc(C(C)C)c1C(=O)NS(=O)(=O)c1ccc(Cl)cc1
*A* 6.38

*Q* Return reported Percent Effect; argument: O=C(c1cscn1)N1CCC[C@]2(C[C@H](OCC3CC3)CO2)C1
*A* 4.25

*Q* Return reported Percent Effect; argument: CC(C)C(=O)NCCNc1nccc(-c2cc(C(=O)O)ccn2)n1
*A* 9.68

*Q* Return reported Percent Effect; argument: CCN1CCN(S(=O)(=O)c2cc(Cl)c(Cl)cc2C)CC1
*A* -28

*Q* Return reported Percent Effect; argument: COCCNC(=O)C(C)n1cc(Br)cn1 (stereo unspecified)
*A* 9.68

###

biological target: AMP-activated protein kinase, AMPK (Homo sapiens) (UniProt P54646+O43741+P54619+Q9UGJ0+Q9Y478+Q13131+Q9UGI9); test: AMP-dependent Kinase enzyme assay. An in vitro enzyme assay that detects ADP turnover that is directly proportional to AMPK activity. This uses naive AMPK that is activated during the assay with MK-8722; format: functional; set-up: scale not given: direction of the effect not stated beside the values; settings: 30 µM
Listing of recorded Percent Effect by entry.
Lab book: enter the figure in %, no units written.

Recorded results for 3 compounds are shown here.
compound="Cn1ccc(C(=O)NC2CCC23CCN(C(=O)c2ccncc2)CC3)c1 (stereo unspecified)" measurement_unit=% numeric_value=-2.76
compound=O=C1CN(Cc2nnc(-c3ccccc3Br)o2)CCN1 measurement_unit=% numeric_value=0.225
compound=FC(F)(F)c1cccc(C2(CNCc3ccncc3)CCOCC2)c1 measurement_unit=% numeric_value=-6.5

*Q* Return reported Percent Effect; argument: O=C(c1ccc2c(c1)COC2)N1CCC(Nc2cccnn2)CC1
*A* -6.23

*Q* Return reported Percent Effect; argument: Cc1cc(N(C)C)nc(C2(C)CCCN2C(=O)c2cnccn2)n1 (stereo unspecified)
*A* 5.28

*Q* Return reported Percent Effect; argument: CCOc1nnc(CN2CCC(N(C)Cc3noc(C)n3)C2)s1 (stereo unspecified)
*A* -4.92
